I'd appreciate it if you could supply melting point values for the items below.

Quick check: melting point of `Cc1ccc(-c2ccccc2C(=O)Nc2ccc(N3CCN(Cc4cccc(C#N)c4)CC3)cc2)c(C)c1` ?
72 to 76 °C

// query melting point value for entry `COc1cccc(C(=O)Nc2ccc(N3CCN(Cc4ccc[nH]4)CC3)cc2)c1-c1ccc(C(C)C)cc1`
195 to 197 °C

Quick one: melting point for `O=C(Nc1ccc(N2CCN(Cc3cccc(-c4noc(C(F)(F)F)n4)c3)CC2)cc1)c1ccccc1-c1ccc(C(F)(F)F)cc1` ?
188 to 190 °C

Quick one: melting point for `O=C(Nc1ccc(N2CCN(CCCO)CC2)cc1)c1ccccc1-c1ccc(C(F)(F)F)cc1` ?
208 to 210 °C

Entry under review: `CC(C)=CCN1CCN(c2ccc(NC(=O)c3ccccc3-c3ccc(C(F)(F)F)cc3)cc2)CC1` . Reported melting point?
203 to 205 °C

Using the record for N#Cc1cccc(CN2CCN(c3ccc(NC(=O)c4ccccc4Oc4ccccc4)cc3)CC2)c1 (hydrate or solvate) , report its melting point.
133 to 134 °C

So what does the record say about melting point for `CCOC(=O)CN1CCN(c2ccc(NC(=O)c3ccccc3-c3ccc(C(F)(F)F)cc3)cc2)CC1` ?
167 to 169 °C

---

Exercise: for every item that follows, state its recorded melting point.

Consider the compound shown here: `COc1ccc(C(=O)Nc2ccc(N3CCN(Cc4cccc(C#N)c4)CC3)cc2)c(-c2ccccc2)c1` What is its recorded melting point?
159 to 161 °C

Entry `Cc1ccc(-c2ccccc2C(=O)Nc2ccc(N3CCN(Cc4cccc(C#N)c4)CC3)cc2)cc1C` : reported melting point = ?
140 to 144 °C

Any idea what melting point was measured for `O=C(Nc1ccc(N2CCN(Cc3ccc4c(c3)OCO4)CC2)cc1)c1ccccc1-c1ccc(C(F)(F)F)cc1` ?
189 to 191 °C

Reported melting point, compound `O=C(Nc1ccc(N2CCN(Cc3cnccn3)CC2)cc1)c1ccccc1-c1ccc(C(F)(F)F)cc1` : ____
183 to 185 °C

Tell me the measured melting point of `COc1cccc(C(=O)Nc2ccc(N3CCN(Cc4cccc(C#N)c4)CC3)cc2)c1OCCCc1ccccc1` , please.
134 to 136 °C

Please look up its melting point: `COc1cccc(C(=O)Nc2ccc(N3CCN(Cc4cccc(C#N)c4)CC3)cc2)c1-c1ccc(C(F)(F)F)cc1`
215 to 217 °C

Bench note: what melting point did O=C(Nc1ccc(N2CCN(Cc3ccccn3)CC2)cc1)c1ccccc1-c1ccc(C(F)(F)F)cc1 (hydrate or solvate) show?
168 to 170 °C

Look up melting point: `COc1cccc(C(=O)Nc2ccc(N3CCN(Cc4cccc(C#N)c4)CC3)cc2)c1OCCc1ccccc1`
140 to 142 °C

Fill in: melting point of `O=C(Nc1ccc(N2CCN(Cc3c[nH]c4ccc(F)cc34)CC2)cc1)c1ccccc1-c1ccc(C(F)(F)F)cc1` is ___
168 to 170 °C

I would be grateful if you could share the reported melting point for `COc1cccc(C(=O)Nc2ccc(N3CCN(Cc4cccc(-c5nc(C)no5)c4)CC3)cc2)c1-c1ccc(C(C)C)cc1` .
180 to 182 °C

Field request: melting point | item: `Cc1ccc(C(=O)Nc2ccc(N3CCN(Cc4cccc(C#N)c4)CC3)cc2)c(-c2ccc(C(F)(F)F)cc2)c1`
166 to 168 °C

Quick check: melting point of `COc1cccc(C(=O)Nc2ccc(N3CCN(Cc4cccc(C#N)c4)CC3)cc2)c1OCc1ccc(F)cc1` ?
118 to 120 °C

Which melting point is reported for this compound? `COc1ccc(-c2ccc(C(F)(F)F)cc2)c(C(=O)Nc2ccc(N3CCN(Cc4cccc(C#N)c4)CC3)cc2)c1`
151 to 155 °C

# melting point lookup, item `O=C(Nc1ccc(N2CCN(CCCC(F)(F)F)CC2)cc1)c1ccccc1-c1ccc(C(F)(F)F)cc1`
198 to 200 °C

Field request: melting point | item: `NC(=O)c1cccc(CN2CCN(c3ccc(NC(=O)c4ccccc4-c4ccc(C(F)(F)F)cc4)cc3)CC2)c1`
199 to 201 °C

Data request, read-out melting point, for `N#Cc1cc(CN2CCN(c3ccc(NC(=O)c4ccccc4-c4ccc(C(F)(F)F)cc4)cc3)CC2)ccc1F`
168 to 170 °C

Fill in the blank: the reported melting point of `COc1ccc(-c2ccccc2C(=O)Nc2ccc(N3CCN(Cc4cccc(C#N)c4)CC3)cc2)cc1OC` is ____.
116 to 120 °C

Which melting point is listed for `CCOCCN1CCN(c2ccc(NC(=O)c3ccccc3-c3ccc(C(F)(F)F)cc3)cc2)CC1` ?
176 to 178 °C

// lookup melting point for `COc1ccc(-c2ccccc2C(=O)Nc2ccc(N3CCN(Cc4cccc(C#N)c4)CC3)cc2)cc1`
124 to 128 °C

Need melting point, item `O=C(Nc1ccc(N2CCN(Cc3cccc([N+](=O)[O-])c3)CC2)cc1)c1ccccc1-c1ccc(C(F)(F)F)cc1`
152 to 154 °C

I am curious: what melting point value has been reported for `N#Cc1cccc(CN2CCN(c3ccc(NC(=O)c4ccc(Cl)cc4-c4ccc(C(F)(F)F)cc4)cc3)CC2)c1` ?
164 to 165 °C

Give its melting point value. Item: `CC(=O)c1cccc(CN2CCN(c3ccc(NC(=O)c4ccccc4-c4ccc(C(F)(F)F)cc4)cc3)CC2)c1`
181 to 183 °C

Would you kindly share the measured melting point for `N#Cc1cccc(CN2CCN(c3ccc(NC(=O)c4ccccc4OCCC4CCCCC4)cc3)CC2)c1` ?
119 to 121 °C

Please give the measured melting point for this compound: `O=C(Nc1ccc(N2CCN(Cc3ccsc3)CC2)cc1)c1ccccc1-c1ccc(C(F)(F)F)cc1`
187 to 189 °C

# input compound: `COC(=O)c1cccc(CN2CCN(c3ccc(NC(=O)c4ccccc4-c4ccc(C(F)(F)F)cc4)cc3)CC2)c1` ; wanted: its melting point
190 to 192 °C

Tell me the measured melting point of `O=C(Nc1ccc(N2CCN(Cc3cccs3)CC2)cc1)c1ccccc1-c1ccc(C(F)(F)F)cc1` , please.
181 to 183 °C

Field request: melting point | item: `N#Cc1cccc(CN2CCN(c3ccc(NC(=O)c4ccccc4-n4cccc4)cc3)CC2)c1`
174 °C

I would be grateful if you could share the reported melting point for `COc1ccc(C(=O)Nc2ccc(N3CCN(Cc4cccc(C#N)c4)CC3)cc2)c(-c2ccc(C(F)(F)F)cc2)c1` .
160 to 164 °C

Quick one: melting point for `O=C(Nc1ccc(N2CCN(Cc3ccncc3)CC2)cc1)c1ccccc1-c1ccc(C(F)(F)F)cc1` ?
194 to 196 °C

---

For reference, pIC50 measured on human MTP (Homo sapiens):
pIC50 (log units): -log10 of the concentration in mol/L.

What measured pIC50 goes with `O=C(Nc1ccc(N2CCN(Cc3ccc[nH]3)CC2)cc1)c1ccccc1-c1ccc(C(F)(F)F)cc1` ?
9.52

Give its pIC50 value. Item: `Cc1noc(-c2cccc(CN3CCN(c4ccc(NC(=O)c5cccc(C)c5-c5ccc(C(C)C)cc5)cc4)CC3)c2)n1`
9.70

I am curious: what pIC50 value has been reported for `Cc1cccc(C(=O)Nc2ccc(N3CCN(Cc4cccc(C#N)c4)CC3)cc2)c1-c1ccc(C(F)(F)F)cc1` ?
9.70

Would you mind telling me what pIC50 value was observed for `COc1cccc(C(=O)Nc2ccc(N3CCN(Cc4cccc(C#N)c4)CC3)cc2)c1-c1ccc(C(C)C)cc1` ?
9.70

Request the reported pIC50 associated with `Cc1ccc(C(=O)Nc2ccc(N3CCN(Cc4ccc[nH]4)CC3)cc2)c(-c2ccc(C(C)C)cc2)c1`
9.15

---

endpoint name: melting point

Can you share its melting point? I mean this compound: CC(C)c1ccc(-c2ccccc2C(=O)Nc2ccc(N3CCN(Cc4cccc(C#N)c4)CC3)cc2)cc1 [Example 16]
133 to 135 °C

For the compound shown here, Cc1cccc(C(=O)Nc2ccc(N3CCN(CC(N)=O)CC3)cc2)c1-c1ccc(C(F)(F)F)cc1 [Example 40] , give the reported melting point.
196 to 198 °C

# get_value(readout='melting point', item= CC(C)c1ccc(-c2cc(Cl)ccc2C(=O)Nc2ccc(N3CCN(Cc4cccc(C#N)c4)CC3)cc2)cc1 [Example 7] )
188 to 190 °C

Request the reported melting point associated with N#Cc1cccc(CN2CCN(c3ccc(NC(=O)c4ccccc4-c4ccccc4)cc3)CC2)c1 (hydrate or solvate) [Example 11]
169 to 171 °C

May I ask what melting point has been recorded for O=C(Nc1ccc(N2CCN(Cc3nccs3)CC2)cc1)c1ccccc1-c1ccc(C(F)(F)F)cc1 (hydrate or solvate) [Example 59] ?
187 to 189 °C

Requested read-out: melting point. Entry: N#Cc1cccc(CN2CCN(c3ccc(NC(=O)c4ccccc4-c4ccccn4)cc3)CC2)c1 [Example 86]
169 to 171 °C

// melting point lookup, key: N#Cc1cccc(CN2CCN(c3ccc(NC(=O)c4ccccc4-c4ccc(F)cc4)cc3)CC2)c1 [Example 23]
200 to 202 °C

Which measured melting point value corresponds to Cc1ccc(-c2ccc(C(F)(F)F)cc2)c(C(=O)Nc2ccc(N3CCN(Cc4cccc(C#N)c4)CC3)cc2)c1 [Example 18] ?
120 to 124 °C

Data request, read-out melting point, for O=C(Nc1ccc(N2CCN(Cc3cccc(F)c3)CC2)cc1)c1ccccc1-c1ccc(C(F)(F)F)cc1 (hydrate or solvate) [Example 53]
189 to 190.5 °C

Query: melting point; subject: COc1cccc(CN2CCN(c3ccc(NC(=O)c4ccccc4-c4ccc(C(F)(F)F)cc4)cc3)CC2)c1 (hydrate or solvate) [Example 51]
168 to 170 °C

Suppose we examine the compound CCCN1CCN(c2ccc(NC(=O)c3ccccc3-c3ccc(C(F)(F)F)cc3)cc2)CC1 [Example 65] ; what melting point value has been reported?
207 to 209 °C

What does the record list as melting point for O=C(Nc1ccc(N2CCN(Cc3ccco3)CC2)cc1)c1ccccc1-c1ccc(C(F)(F)F)cc1 [Example 67] ?
173 to 175 °C

Given the entry CCc1ccc(-c2ccccc2C(=O)Nc2ccc(N3CCN(Cc4cccc(C#N)c4)CC3)cc2)cc1 [Example 20] , report its measured melting point.
118 to 122 °C

Need melting point of Cn1ccnc1CN1CCN(c2ccc(NC(=O)c3ccccc3-c3ccc(C(F)(F)F)cc3)cc2)CC1 [Example 60] , thanks.
118 to 120 °C
